# Species: Rattus norvegicus
# Protocol Description: DrugMatrix - Regimen: Daily Repeat
# Type: toxicity, organism-based, Sprague-Dawley
# Parameters: regimen Daily Repeat, gender Male, age 6-8 weeks
# Cond: in vivo, po, 0 mg/kg, 120 h, tissue Plasma, route oral GAVAGE, dose level Control, time 5 day, vehicle 100 % WATER
Quantity Name: BLOOD UREA NITROGEN (mg/dL)
Write it as a number; the unit mg/dL goes unstated.

Record summary for `CCN(CC)CCOC(=O)C1(C2CCCCC2)CCCCC1` : reported BLOOD UREA NITROGEN = 16.33

Record summary for CCCC(C)C1(CC)C(=O)NC(=O)NC1=O (stereo not given) : reported BLOOD UREA NITROGEN = 15

Record summary for `CCN(C(C)=O)c1cccc(-c2ccnc3c(C#N)cnn23)c1` : reported BLOOD UREA NITROGEN = 15.33

Record summary for `C#Cc1cccc(Nc2ncnc3cc(OCCOC)c(OCCOC)cc23)c1` : reported BLOOD UREA NITROGEN = 15.33

Record summary for CN(C)C(=O)Oc1cccc([N+](C)(C)C)c1.[Br-] [NEOSTIGMINE BROMIDE] : reported BLOOD UREA NITROGEN = 15
